target_system: Aβ42 (Homo sapiens, UniProt P05067)
Sequence (P05067 672-713): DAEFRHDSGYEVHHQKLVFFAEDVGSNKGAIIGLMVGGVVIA
experiment_summary: Th-T (thioflavin-T) assay of Aβ42 aggregation
Assay type: biochemical
experimental_parameters: column suffix _10; reading M92
Classification field: y = Fig. 7a Th-T reading, mean of three wells at or over 3; n = Fig. 7a Th-T reading, mean of three wells under 3.

Record excerpt, results attached:
>>> group("C=C1CCC2C(C)(CCC=C(C)C)C(O)CCC2(C)C1Cc1c(OC)oc(CO)c(C(=O)OC)c1=O (centres unmarked)")
"n"
>>> group("C=C1CC[C@@H]2[C@](C)(CC[C@H]3O[C@H](C=C(C)C)C[C@@]23C)[C@@H]1Cc1c(OC)oc(CO)c(C(=O)OC)c1=O")
"n"
>>> group("C=C1CC[C@@H]2[C@](C)(CC[C@H]3O[C@H](C=C(C)C)C[C@@]23C)[C@@H]1Cc1c(OC)oc(CO)c(C)c1=O")
"y"

Query: // inclusive: Fig. 7a Th-T reading, mean of three wells at least 3? input: C=C1CCC2C(C)(CCC=C(C)C)C(O)CCC2(C)C1Cc1c(OC)oc(C)c(C(=O)OC)c1=O (centres unmarked)
Response: n

====

experiment_summary: cytotoxicity in Drosophila DL1 cells
Type: cell-based
experimental_parameters: Drosophila, DL1 cells (embryonic macrophage-derived), DL1 cells, 1 µM, replicate 2, relative to DMSO 1%; read-out: % viability, viability 2
quantity_kind: viability at 1 µM (%)
Give the value in % but do not write % after it.

Query: Given `C=C1CC[C@@H]2[C@](C)(CC[C@H]3O[C@H](C=C(C)C)C[C@@]23C)[C@@H]1Cc1c(OC)oc(CO)c(C(=O)OC)c1=O` , state its recorded viability at 1 µM.
Response: 2.4

Query: Reported viability at 1 µM for `C=C1CC[C@@H]2[C@](C)(CC[C@H]3O[C@H](C=C(C)C)C[C@@]23C)[C@@H]1Cc1c(O)c(C)c(C)oc1=O` : what is it?
Response: 6.51

Query: // lookup viability at 1 µM for C=C1CCC2C(C)(CC(=O)C=C(C)C)C(O)CCC2(C)C1Cc1c(OC)oc(C)c(C)c1=O (stereo not shown)
Response: 133

Query: Any idea what its viability at 1 µM is? The compound is `C=C1CC[C@@H]2[C@](C)(CC[C@H]3O[C@H](C=C(C)C)C[C@@]23C)[C@@H]1Cc1c(OC)oc(CO)c(C)c1=O`
Response: 19.9

Query: Consider the compound shown here: C=C1CCC2C(C)(CC(=O)C=C(C)C)C(O)CCC2(C)C1Cc1c(O)c(C)c(C)oc1=O (stereo not shown) What is its recorded viability at 1 µM?
Response: 138

Query: For `C=C1CC[C@H]2[C@]3(C)C[C@@H](C=C(C)C)O[C@H]3CC[C@]2(C)[C@@H]1Cc1c(OC)oc(CO)c(C)c1=O` , what is its reported viability at 1 µM?
Response: 35.7

Query: Name the reported viability at 1 µM value associated with the compound C=C1CCC2C3(C)CC(C=C(C)C)OC3CCC2(C)C1Cc1c(OC)oc(C)c(C)c1=O (stereo not shown)
Response: 9.91

====

target_system: Aβ42 (Homo sapiens, UniProt P05067)
experiment_summary: Th-T (thioflavin-T) assay of Aβ42 aggregation
Assay type: biochemical
experimental_parameters: time-course reading M102; Supplementary Fig. 47 source data
Classification field: true = Th-T fluorescence, mean of three wells at or over 3; false = Th-T fluorescence, mean of three wells under 3.

Solved entries (count: 5):
>>> group("C=C1CCC2C(C)(CCC=C(C)C)C(O)CCC2(C)C1Cc1c(OC)oc(CO)c(C(=O)OC)c1=O (stereo not shown)")
"false"
>>> group("C=C1CCC2C(C)(CC(=O)C=C(C)C)C(O)CCC2(C)C1Cc1c(O)c(C)c(C)oc1=O (stereo not shown)")
"true"
>>> group("C=C1CCC2C(C)(CCC=C(C)C)C(O)CCC2(C)C1Cc1c(O)c(C)c(C)oc1=O (stereo not shown) [Compound 4]")
"false"
>>> group("C=C1CC[C@H]2[C@]3(C)C[C@H](C=C(C)C)O[C@H]3CC[C@]2(C)[C@@H]1Cc1c(O)c(C)c(C)oc1=O")
"true"
>>> group("C=C1CCC2C(C)(CCC=C(C)C)C(O)CCC2(C)C1Cc1c(O)c(C)c(C)oc1=O (stereo not shown) [Compound 9, higginsianin B]")
"false"

# evaluate next
Query: Check if Th-T fluorescence, mean of three wells >= 3 (inclusive). Item: C=C1CCC2C(C)(CCC=C(C)C)C(O)CCC2(C)C1Cc1c(OC)oc(C)c(C)c1=O (stereo not shown) [Compound 15, viridoxin A hydrolysate]
Response: true
